Hello, the source for this data is PubChem BioAssay (NCI), in case you need it.

Test system: U251 CNS
TEST: NCI-60 one-dose screen, 48 h
RECORDED_CONDITIONS: 10 µM unless noted
The panel holds about 83,000 compounds, 20% with a hit somewhere; the sample as a whole holds those more often. Active and inactive are the calls of the source. How the source made its calls: active means growth percent below 10; inactive means the rest.
Please reply with one of these outcomes: Yes (active), No (inactive)

Solved entries:
* COc1ccc(S(=O)(=O)N2CCCCC2)cc1NC(=O)c1[nH]c(C)c2c1CCCCC2=O | No
* CC(=O)c1cc2c(N)c(C(=O)Nc3cccc4ccccc34)sc2nc1C | No
* CCOC(=O)c1c(C)oc2ncnc(N3CCN(C(=S)Nc4ccccc4)CC3)c12 | No
* O=[N+]([O-])c1ccc2c(c1)Cc1cc(F)ccc1-2 | No
* COc1ccc(-n2nc(C)c3c(Nc4ccc(NC(=O)Nc5c(Cl)cccc5Cl)cc4)ncnc32)cc1 | No

I'd appreciate the recorded outcome for CCNc1ncnc2c1cnn2C1CCCO1 (stereo not given) from this test. No

I'd appreciate the recorded outcome for CCN1CCC2(CC1)NC(=O)c1c(c3ccc(Cl)c(Cl)c3n1C)C2C#N (stereo not given) from this test. No

---

Test system: NCI-H23 lung
TEST: NCI-60 one-dose screen, 48 h
RECORDED_CONDITIONS: 10 µM unless noted
Compounds without any hit were thinned out: in the full panel of roughly 83,000, 20% have a hit. Calls of active or inactive are those of the source. The calls were made as follows: active = growth percent below 10; inactive = the rest.
Please reply with one of these outcomes: active, inactive

- CSc1ccc(SC2c3ccc(C)cc3Oc3nc(N)c(C#N)c(N)c32)cc1 (stereo not given): active
- COc1cccc2c1C(=O)c1c(O)c3c(c(O)c1C2=O)C[C@](O)(C(=O)CO)C[C@H]3O[C@@H]1C[C@@H](NC(=O)CCCN(C)C2(c3ccc(F)cc3)CC3CCC2C3)[C@H](O)[C@@H](C)O1 (stereo not given in full): active
- O=C1/C(=C/C(Cl)=C/c2ccccc2)SC(=S)N1CCc1ccc(O)cc1: active
- COc1cc(/C=C/C(=O)c2cccnc2Nc2ccc(F)cc2)cc(OC)c1OC: inactive
- Cn1c(O)c(N=NC(=O)c2cc(-c3ccccc3)on2)c2ccccc21: inactive

I'd appreciate the recorded outcome for "CCOC(=O)c1c(CN2CCN(C)CC2)nc2ccc(Cl)cc2c1-c1ccccc1" from this test. inactive

I'd appreciate the recorded outcome for "CC/C=C\C/C=C\C[C@H]1C/C=C2/C(=O)C=C[C@@H]2C/C=C\CCC(=O)O1" from this test. inactive

I'd appreciate the recorded outcome for "COc1ccc(CN2c3ccccc3Oc3ccccc32)cc1O" from this test. inactive

I'd appreciate the recorded outcome for "O=C1NC(=Nc2ccc(O)cc2)S/C1=C\c1cccc(Cl)c1" from this test. inactive

I'd appreciate the recorded outcome for "C=C1c2nc3ccccc3n2C=C(c2cccc(Cl)c2)N1Cc1ccc(OC)cc1" from this test. inactive

I'd appreciate the recorded outcome for "C=C1c2nc3ccccc3n2C=C(c2ccc(OC)cc2)N1Cc1ccccc1" from this test. inactive

I'd appreciate the recorded outcome for "O=C(/C=C/c1cc(CN2CCOCC2)c(O)c2ncccc12)c1cc(CN2CCOCC2)c(O)c2ncccc12" from this test. inactive

I'd appreciate the recorded outcome for "C=CC(=O)Nc1cccc(Nc2nc(SC)nc(-c3cccc([N+](=O)[O-])c3)c2C#N)c1" from this test. inactive

I'd appreciate the recorded outcome for "COc1cccc(-c2nc3sccn3c2-c2ccnc(NCCCNS(=O)(=O)c3c(Cl)cccc3Cl)c2)c1" from this test. inactive

I'd appreciate the recorded outcome for CC(C)C[C@@H](NC(=O)[C@@H](Cc1ccccc1)NC(=O)c1cnccn1)B1Oc2ccc(C[C@H](NC(=O)[C@H](Cc3ccc4c(c3)OB([C@@H](CC(C)C)NC(=O)[C@@H](Cc3ccccc3)NC(=O)c3cnccn3)O4)NC(=O)[C@@H](N)CC3CCC4OB([C@@H](CC(C)C)NC(=O)[C@@H](CC5CCCCC5)NC(=O)C5CNCCN5)OC4C3)C(=O)NCCCC[C@@H]3NC(=O)[C@@H](Cc4ccccc4)NC(=O)[C@H](CC(=O)O)NC(=O)CNC(=O)[C@H](CCCNC(=N)N)NC3=O)cc2O1 (stereo not given in full) from this test. active

---

Test system: KM12 colon
TEST: NCI-60 one-dose screen, 48 h (100 = growth as untreated, 0 = no growth, -100 = all killed)
RECORDED_CONDITIONS: 10 µM unless noted
The panel holds about 83,000 compounds, 20% with a hit somewhere; the sample as a whole holds those more often. Activity calls are given as the source filed them. The calls were made as follows: active = growth percent below 10; inactive = the rest.
ATTRIBUTE_MEASURED: growth

Worked set:
- CC[C@@H](C(=O)[C@@H](C)[C@@H](O)[C@H](C)[C@@H]1O[C@@H]([C@@H](CC)C(=O)O)CC[C@@H]1C)[C@H]1OC2(C=C[C@@H](O)[C@]3(CC[C@@](C)([C@H]4CC[C@](O)(CC)[C@H](C)O4)O3)O2)[C@H](C)C[C@@H]1C (some centres undefined): 12.2% (inactive)
- COc1ccc(-c2nnc(SCC(=O)c3ccc(Cl)cc3)o2)cc1: 102% (inactive)
- CCOC(=O)c1c(C(=O)OCC)c2cc(-c3ccn4c(C(=O)c5ccccc5)c(C(=O)OCC)c(C(=O)OCC)c4c3)ccn2c1C(=O)c1ccccc1: 87.7% (inactive)

I looked up "COc1ccc(-c2cc(=O)c3c(OC)c4ccoc4cc3o2)cc1" and its growth for KM12 colon was 100% (inactive)

I looked up "Cn1cc(C(=O)c2nc(-c3c[nH]c4ccc(F)cc34)no2)c2cc(F)ccc21" and its growth for KM12 colon was 79.2% (inactive)

I looked up "CN1CCN(c2nc(NCCCNc3ccnc4cc(Cl)ccc34)c3ccccc3n2)CC1" and its growth for KM12 colon was 41.9% (inactive)

I looked up "C#CCOc1ccc2ncnc(Nc3cccc(CNC(=O)CCl)c3)c2c1" and its growth for KM12 colon was 63.2% [8.25 µM] (inactive)

I looked up "Cc1cc2nc3[nH]c4ccccc4c3nc2cc1C" and its growth for KM12 colon was 77.9% (inactive)

I looked up "CC(=O)Nc1ccc(S(=O)(=O)Nc2cccc(-c3nc(-c4ccc(NC(=O)c5cccnc5)cc4Cl)no3)c2)cc1" and its growth for KM12 colon was 28.7% (inactive)

---

Tested on: K-562 leukemia
TEST: NCI-60 one-dose screen, 48 h
RECORDED_CONDITIONS: 10 µM unless noted
The panel holds about 83,000 compounds, 20% with a hit somewhere; the sample as a whole holds those more often. Active and inactive are the calls of the source. The calls were made as follows: active = growth percent below 10; inactive = the rest.
Please reply with one of these outcomes: TRUE = active, FALSE = inactive

- CC1=C[C@H]2c3c(c(O)c(O)c4oc5c(C)cccc5c(=O)c34)[C@H](c3cc(O)c(O)c4oc5c(C)cccc5c(=O)c34)[C@H]2C(C)(C)C1: TRUE

I'd appreciate the recorded outcome for "CC(=O)c1nc2ccccc2n1CC(=O)c1cccc(Cl)c1" from this test. TRUE

I'd appreciate the recorded outcome for "N#Cc1c(-c2ccc(Cl)cc2)nc(N/N=C/c2cccc(Br)c2)nc1N1CCOCC1" from this test. FALSE

I'd appreciate the recorded outcome for "Fc1ccc(CNc2cccc3[nH]c(C(F)(F)F)nc23)cc1" from this test. FALSE

---

Tested on: MDA-MB-231 breast
TEST: NCI-60 one-dose screen, 48 h
RECORDED_CONDITIONS: 10 µM unless noted
Procedure: Cells are grown in 96 well plates and exposed to the test compound for 48 hours. Compounds are tested at a single concentration, which is 10^-5 M for most compounds. The reported endpoint is percent growth (GI% or GIPRCNT), where numbers from 0 - 100% represent growth inhibition, and numbers from -100% - 0 represent cell death. For example, a value of 40 represents 60% growth inhibition. A value of 0 means no net growth occurred over the course of the experiment. […]
This is part of a sample that, as a whole, favours compounds with a hit. Of some 83,000 tested, about 20% had one in any assay. The source made the active and inactive calls. Rule for the calls: active = growth percent below 10; inactive = the rest.
Please reply with one of these outcomes: t (active), f (inactive)

Solved entries:
- COc1cc2c(cc1O)CC[C@@H]1[C@@H]2CC[C@]2(C)[C@@H](OCCN(C)C)CC[C@@H]12: f
- O=C(Cc1ccc(/C=C/C(=O)c2ncc[nH]2)cc1)Nc1ccc(F)cc1: f
- COc1ccc(NC2=C(Sc3nc(C)cc(C)n3)C(=O)N(Cc3ccccc3)C2=O)cc1Cl: f
- O=c1ccccc(-c2ccc(-c3ccco3)cc2)c1O: f
- CCOc1cc2ncc(C#N)c(Nc3ccc(OCc4cccc(F)c4)c(Cl)c3)c2cc1NC(=O)CC1CCSS1 (centres undefined): f
- CN1CCN(c2nc(NCCCCNc3ccnc4cc(Cl)ccc34)c3ccccc3n2)CC1: t

I'd appreciate the recorded outcome for "NC(=NCCCC1(c2ccccc2)CCCC1)Nc1ccc(Cl)cc1" from this test. t

I'd appreciate the recorded outcome for "N#CCCN=Nc1c(O)[nH]c2ccc([N+](=O)[O-])cc12" from this test. f

I'd appreciate the recorded outcome for "O=C(C(=O)c1ccc2c(c1)OCO2)c1ccc2c(c1)OCO2" from this test. f
